Tested on: MCF7 breast
Experiment: NCI-60 one-dose screen, 48 h (100 = growth as untreated, 0 = no growth, -100 = all killed)
Settings: 10 µM unless noted
This is part of a sample that, as a whole, favours compounds with a hit. Of some 83,000 tested, about 20% had one in any assay.
Classification field: enter yes for growth values not below 30%, no for values below it.

compound=CC[C@]12C=CCN3CC[C@@]4(c5ccc(OC)cc5N(C)[C@H]4[C@@](O)(C(=O)OC)[C@@H]1OC(=O)CCCC[P+](c1ccccc1)(c1ccccc1)c1ccccc1)[C@@H]32 label=no
compound="CN1CCCCC1C(C)(O)c1ccccc1 (stereo not drawn)" label=yes
compound=CCOC(=O)[C@@H](C)C[C@H](Cc1ccccc1)NC(=O)c1csc([C@@H](C[C@H](C(C)C)N(C)C(=O)CNC(=O)[C@H]2CCCCN2C)OC(C)=O)n1 label=no
compound=Cc1cc(N(CCCl)CCCl)ccc1C=Nc1ccc(-c2csc(Cc3ccccc3)n2)cc1 label=yes
compound="COc1ccc2c(c1)c(C1(O)CC(CSC#N)OC1=O)cn2C(=O)c1ccc(Cl)cc1 (stereo not drawn)" label=yes
compound=COC(=O)[C@H](Cc1ccccc1)NNC(=O)c1csc([C@@H](C[C@H](C(C)C)N(C)C(=O)[C@@H](NC(=O)[C@H]2CCCCN2C)C2CC2)OC(C)=O)n1 label=no
compound=COc1ccc(/C=C\c2cc(OC)c(OC)c(OC)c2)cc1NC(=O)/C=C/c1ccc(OC)c(OC)c1 label=no
compound=CCOC(=O)N[C@H]1CCc2c(Br)c(OC)c(OC)c(OC)c2-c2ccc(SC)c(=O)cc21 label=no
compound=COc1cc2c(cc1OCc1ccccc1)C(CC(C)C)=[N+](C)CC2 label=yes
compound=O=C1NC(=O)C(=Cc2cccn2CCCCCn2c3ccccc3c(=O)c3ccccc32)C(=O)N1 label=yes

Exam item: decide whether the reported growth for CN1C(=O)C(=Cc2cn(CCCCCCn3c4ccccc4c(=O)c4ccccc43)c3ccccc23)C(=O)N(C)C1=O is at least 30%. yes

Exam item: decide whether the reported growth for COc1cc([C@@H]2c3cc4c(cc3[C@H](OC(C)=O)[C@H]3COC(=O)[C@@H]23)OCO4)cc(OC)c1OC is at least 30%. no
